The reported numbers originate from ChEMBL document CHEMBL5344424.

experiment: Inhibition of quorum sensing system in Pseudomonas aeruginosa PAO1 assessed as inhibition of pyocyanin production at 10 uM incubated for 24 hrs by optical density based analysis relative to control
Labels assigned by inhibition range: bottom bin: < 50%; middle bin: ≥ 50% and < 60%; top bin: ≥ 60%

[[record]]
structure_smiles_string = "CCCCCCCCn1cc(CNCc2c(O)c(=O)cc(C)n2C)nn1"
class_name = "top bin"

[[record]]
structure_smiles_string = "Cc1cc(=O)c(O)c(COCc2cn(-c3ccc(Oc4ccccc4)cc3)nn2)n1C"
class_name = "middle bin"

[[record]]
structure_smiles_string = "COc1ccc(-n2cc(CNCc3c(O)c(=O)cc(C)n3C)nn2)cc1"
class_name = "middle bin"

[[record]]
structure_smiles_string = "Cc1cc(=O)c(O)c(CNCc2cn(-c3ccc(Oc4ccccc4)cc3)nn2)n1C"
class_name = "top bin"

[[record]]
structure_smiles_string = "Cc1ccc(-n2cc(CNCc3c(O)c(=O)cc(C)n3C)nn2)cc1"
class_name = "bottom bin"

[[record]]
structure_smiles_string = "Cc1cc(=O)c(O)c(CNCc2cn(-c3ccc(OC(F)(F)F)cc3)nn2)n1C"
class_name = "top bin"

[[record]]
structure_smiles_string = "Cc1cc(=O)c(O)cn1Cc1cn(-c2ccc(Oc3ccccc3)cc2)nn1"
class_name = "bottom bin"

